# test-system: T1, cynomolgus IL-1α (cynomolgus, UniProt P79340 113-271, limits assumed)
# T1 construct: also called cyno IL-1α
# T1 sequence (looked up): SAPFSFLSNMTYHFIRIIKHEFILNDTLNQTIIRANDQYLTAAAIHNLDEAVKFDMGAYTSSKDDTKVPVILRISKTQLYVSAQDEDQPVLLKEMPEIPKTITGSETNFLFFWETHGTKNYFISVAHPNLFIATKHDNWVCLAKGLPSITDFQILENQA
# experiment: SPR (BIACORE), antibody captured, IL-1α in solution
This listing pairs binders with measured Kd.
Express the result in pM but write the number alone.

Please review the entries below; each comes with its answer.
>  <binder>
h3D12.r10 (antibody, V domains shown) VH: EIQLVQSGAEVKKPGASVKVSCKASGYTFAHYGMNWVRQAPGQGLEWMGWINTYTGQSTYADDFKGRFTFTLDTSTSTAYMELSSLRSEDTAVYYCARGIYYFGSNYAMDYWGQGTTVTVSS VL: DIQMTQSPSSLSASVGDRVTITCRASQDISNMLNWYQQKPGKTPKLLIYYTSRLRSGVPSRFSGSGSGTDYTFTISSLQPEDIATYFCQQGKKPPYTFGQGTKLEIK

>  <measured-quantity>
Kd

>  <value-observed>
8.94

$$$$
>  <binder>
h3D12-362-10/372-15 (antibody, V domains shown) VH: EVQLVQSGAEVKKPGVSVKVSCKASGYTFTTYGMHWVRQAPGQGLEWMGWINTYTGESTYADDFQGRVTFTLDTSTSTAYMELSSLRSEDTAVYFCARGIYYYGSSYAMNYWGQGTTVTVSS VL: DIQMTQSPSSLSASVGDRVTITCRASQDISNMLNWYQQKPGKTPKLLIYYTSRLYPGVPSRFSGSGSGTDYTFTISSLQPEDIATYFCQQGKTLPYAFGQGTKLEIK

>  <measured-quantity>
Kd

>  <value-observed>
57.8

$$$$

# input Please supply the value of reported Kd for the item h3D12.r16 (antibody, V domains shown) VH: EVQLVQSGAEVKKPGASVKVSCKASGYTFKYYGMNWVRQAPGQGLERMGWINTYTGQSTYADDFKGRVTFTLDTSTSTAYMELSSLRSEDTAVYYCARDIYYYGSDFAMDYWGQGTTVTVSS VL: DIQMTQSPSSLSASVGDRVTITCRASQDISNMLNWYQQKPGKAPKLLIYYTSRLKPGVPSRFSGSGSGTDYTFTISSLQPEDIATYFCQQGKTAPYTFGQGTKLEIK
# output 14.9

# input Item h3D12.r37 (antibody, V domains shown) VH: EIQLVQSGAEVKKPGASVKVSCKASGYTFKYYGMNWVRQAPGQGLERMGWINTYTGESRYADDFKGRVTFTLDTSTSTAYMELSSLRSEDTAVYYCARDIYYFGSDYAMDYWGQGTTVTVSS VL: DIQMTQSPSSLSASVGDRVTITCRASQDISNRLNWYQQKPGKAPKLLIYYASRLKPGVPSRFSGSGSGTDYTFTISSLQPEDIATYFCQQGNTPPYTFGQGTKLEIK : provide Kd
# output 39.4
